System: Enterococcus faecium
assayExplanation: Antibacterial activity against linezolid and vancomycin-resistant Enterococcus faecium VRE2 assessed as inhibition of bacterial growth incubated for 18 to 24 hrs by broth microdilution method
Format: functional
Provide the reported MIC of each item.

# query: MIC of entry COc1cc(/C=C/C(=O)O[C@H](C)[C@H]2C(=O)N/C2=C\C(=O)OCc2ccccc2)ccc1O
> 128 µg/mL

Cool, now C[C@@H](OC(=O)c1ccc(O)c(O)c1)[C@H]1C(=O)N/C1=C\C(=O)OCc1ccccc1
128 µg/mL

Cool, now C[C@@H](OC(=O)/C=C/c1ccc(O)cc1)[C@H]1C(=O)N/C1=C\C(=O)OCc1ccccc1
> 128 µg/mL

Cool, now C[C@@H](OC(=O)c1cccc2c1OCO2)[C@H]1C(=O)N/C1=C\C(=O)OCc1ccccc1
> 128 µg/mL

Cool, now C[C@@H](OC(=O)/C=C/c1ccc2c(c1)OCO2)[C@H]1C(=O)N/C1=C\C(=O)OCc1ccccc1
> 128 µg/mL

Cool, now CO/N=C(\C(=O)N[C@@H]1C(=O)N2C(C(=O)O)=C(COC(N)=O)CS[C@H]12)c1ccco1
> 128 µg/mL

###

Provide the reported MIC of each item.
System: Staphylococcus aureus
assayExplanation: Antibacterial activity against Staphylococcus aureus ATCC 29213 assessed as inhibition of bacterial growth incubated for 18 to 24 hrs by broth microdilution method
Type: functional

# query: MIC of entry C[C@@H](OC(=O)/C=C/c1ccc2c(c1)OCO2)[C@H]1C(=O)N/C1=C\C(=O)OCc1ccccc1
> 128 µg/mL

Cool, now COc1cc(/C=C/C(=O)O[C@H](C)[C@H]2C(=O)N/C2=C\C(=O)OCc2ccccc2)cc(OC)c1O
> 128 µg/mL

Cool, now C[C@@H](OC(=O)/C=C/c1ccc(O)c(O)c1)[C@H]1C(=O)N/C1=C\C(=O)OCc1ccccc1
> 128 µg/mL
